assay: in vivo; conditions: BALB/c nude, mouse, in vivo, iv, total radioactivity, % ID/g Fat
PROPERTY NAME: tissue uptake at 24 h (%ID/g)

compound="C[C@@H](O)[C@H](NC(=O)[C@@H]1CSSC[C@H](NC(=O)[C@@H](Cc2ccccc2)NC(=O)COCCOCCNC(=O)[C@H](CCCCNC(=O)c2cccc(NC(=O)N[C@@H]3CN(C4CCCCC4)c4ccccc4N(CC(=O)C(C)(C)C)C3=O)c2)NC(=O)CN2CCN(CC(=O)O)CCN(CC(=O)O)CCN(CC(=O)O)CC2)C(=O)N[C@@H](Cc2ccc(O)cc2)C(=O)N[C@H](Cc2c[nH]c3ccccc23)C(=O)N[C@@H](CCCCN)C(=O)N[C@@H]([C@@H](C)O)C(=O)N1)C(=O)O [Compound 177Lu-I-37, metal not drawn]" data_value=0.4

###

assay: in vivo; conditions: BALB/c nude, mouse, in vivo, iv, total radioactivity, % ID/g Heart
PROPERTY NAME: tissue uptake at 24 h

compound="C[C@@H](O)[C@H](NC(=O)[C@@H]1CSSC[C@H](NC(=O)[C@@H](Cc2ccccc2)NC(=O)[C@H](CCCCNC(=O)COCCOCCNC(=O)c2cccc(NC(=O)N[C@@H]3CN(C4CCCCC4)c4ccccc4N(CC(=O)C(C)(C)C)C3=O)c2)NC(=O)CN2CCN(CC(=O)O)CCN(CC(=O)O)CCN(CC(=O)O)CC2)C(=O)N[C@@H](Cc2ccc(O)cc2)C(=O)N[C@H](Cc2c[nH]c3ccccc23)C(=O)N[C@@H](CCCCN)C(=O)N[C@@H]([C@@H](C)O)C(=O)N1)C(=O)O [^177Lu-I-36, metal not drawn]" data_value="0.85 %ID/g"
compound="C[C@@H](O)[C@H](NC(=O)[C@@H]1CSSC[C@H](NC(=O)[C@@H](Cc2ccccc2)NC(=O)COCCOCCNC(=O)COCCOCCNC(=O)[C@H](CCCCNC(=O)c2cccc(NC(=O)N[C@@H]3CN(C4CCCCC4)c4ccccc4N(CC(=O)C(C)(C)C)C3=O)c2)NC(=O)CN2CCN(CC(=O)O)CCN(CC(=O)O)CCN(CC(=O)O)CC2)C(=O)N[C@@H](Cc2ccc(O)cc2)C(=O)N[C@H](Cc2c[nH]c3ccccc23)C(=O)N[C@@H](CCCCN)C(=O)N[C@@H]([C@@H](C)O)C(=O)N1)C(=O)O [Compound 177Lu-I-39, metal not drawn]" data_value="0.38 %ID/g"

###

assay: in vivo; conditions: BALB/c nude, mouse, in vivo, iv, total radioactivity, % ID/g Lung
The following compounds are shown together with reported tissue uptake at 4 h values.
PROPERTY NAME: tissue uptake at 4 h (%ID/g)

compound="C[C@@H](O)[C@H](NC(=O)[C@@H]1CSSC[C@H](NC(=O)[C@@H](Cc2ccccc2)NC(=O)[C@H](CCCCNC(=O)COCCOCCNC(=O)c2cccc(NC(=O)N[C@@H]3CN(C4CCCCC4)c4ccccc4N(CC(=O)C(C)(C)C)C3=O)c2)NC(=O)CN2CCN(CC(=O)O)CCN(CC(=O)O)CCN(CC(=O)O)CC2)C(=O)N[C@@H](Cc2ccc(O)cc2)C(=O)N[C@H](Cc2c[nH]c3ccccc23)C(=O)N[C@@H](CCCCN)C(=O)N[C@@H]([C@@H](C)O)C(=O)N1)C(=O)O [^177Lu-I-36, metal not drawn]" data_value=2.89
compound="C[C@@H](O)[C@H](NC(=O)[C@@H]1CSSC[C@H](NC(=O)[C@@H](Cc2ccccc2)NC(=O)COCCOCCNC(=O)[C@H](CCCCNC(=O)c2cccc(NC(=O)N[C@@H]3CN(C4CCCCC4)c4ccccc4N(CC(=O)C(C)(C)C)C3=O)c2)NC(=O)CN2CCN(CC(=O)O)CCN(CC(=O)O)CCN(CC(=O)O)CC2)C(=O)N[C@@H](Cc2ccc(O)cc2)C(=O)N[C@H](Cc2c[nH]c3ccccc23)C(=O)N[C@@H](CCCCN)C(=O)N[C@@H]([C@@H](C)O)C(=O)N1)C(=O)O [Compound 177Lu-I-37, metal not drawn]" data_value=4.42
